Hello, the source for this data is the supplement of paper PMC10307832, in case you need it.

system: NCI-H1792; assay: relative viability (nuclei count vs DMSO), 5 days (fraction); higher = more cells survive; conditions: first compound 5 µM
result type: relative viability

compound="O=C(O)CCCCC(CCSCc1ccccc1)SCc1ccccc1 (stereo not drawn) [CPI-613] + CC(=O)Nc1cccc(-n2c(=O)n(C3CC3)c(=O)c3c(Nc4ccc(I)cc4F)n(C)c(=O)c(C)c32)c1 [Trametinib] (partner 0.02 µM)" recorded_value=0.381
compound="O=C(O)CCCCC(CCSCc1ccccc1)SCc1ccccc1 (stereo not drawn) [CPI-613] + C[C@@H](Oc1cc(-c2cnn(C3CCNCC3)c2)cnc1N)c1c(Cl)ccc(F)c1Cl [Crizotinib] (partner 1 µM)" recorded_value=0.937
compound="O=C(O)CCCCC(CCSCc1ccccc1)SCc1ccccc1 (stereo not drawn) [CPI-613] + CC1(C)CCC(c2ccc(Cl)cc2)=C(CN2CCN(c3ccc(C(=O)NS(=O)(=O)c4ccc(N[C@H](CCN5CCOCC5)CSc5ccccc5)c(S(=O)(=O)C(F)(F)F)c4)cc3)CC2)C1 [Navitoclax] (partner 0.5 µM)" recorded_value=0.518
